The reported measurements were obtained from patent US5580904A.

- Type: in vivo
- Setup conditions: Time 0-4 hr; 5 mg/kg on the basis of DOPA, into the femoral vein, SD rats
Area under the curve of concentration (AUC) of DOPA in brain overview
Express it in ng·min/g; write the number only.

For the compound shown here, N[C@@H](Cc1ccc(O)c(O)c1)C(=O)O [DOPA, 3,4-dihydroxy phenylalanine, reference compound] , give the reported Area under the curve of concentration (AUC) of DOPA in brain.
6035

For the compound shown here, C=CCSS/C(CCOC(=O)C(N)Cc1ccc(OC(=O)C(C)(C)C)c(OC(=O)C(C)(C)C)c1)=C(/C)N(C=O)Cc1cnc(C)nc1N (centres unmarked) [35 (b)] , give the reported Area under the curve of concentration (AUC) of DOPA in brain.
10626

For the compound shown here, C/C(=C(\CCOC(=O)C(N)Cc1ccc(OC(=O)C(C)(C)C)c(OC(=O)C(C)(C)C)c1)SSCC1CCCO1)N(C=O)Cc1cnc(C)nc1N (centres unmarked) [29 (b)] , give the reported Area under the curve of concentration (AUC) of DOPA in brain.
7151

For the compound shown here, CC(C)(C)C(=O)Oc1ccc(C[C@H](N)C(=O)O)cc1OC(=O)C(C)(C)C [Boc-elimination of Compound D, reference compound] , give the reported Area under the curve of concentration (AUC) of DOPA in brain.
3277

# input for lookup
For the compound shown here, CC(=C(CCOC(=O)[C@@H](N)Cc1ccc(OC(=O)C(C)(C)C)c(OC(=O)C(C)(C)C)c1)SSC(C)C)N(C)C=O [3 (b)] , give the reported Area under the curve of concentration (AUC) of DOPA in brain.
82476

* * *

- Format: in vivo
- Setup conditions: Time 0-2 hr; 5 mg/kg on the basis of DOPA, into the femoral vein, SD rats
Counter-ions that a name gives are not always drawn.
Area under the curve of concentration (AUC) of DOPA in brain overview
Express it in ng·min/g; write the number only.

Solved cases below.
For the compound shown here, C/C(=C(\CCOC(=O)C(N)Cc1ccc(OC(=O)C(C)(C)C)c(OC(=O)C(C)(C)C)c1)SSC(C)C)N(C=O)Cc1cnc(C)nc1N (stereo not shown) [Example 30 (b), hydrochloride] , give the reported Area under the curve of concentration (AUC) of DOPA in brain.
34595

For the compound shown here, N[C@@H](Cc1ccc(O)c(O)c1)C(=O)O [DOPA, 3,4-dihydroxy phenylalanine, reference compound] , give the reported Area under the curve of concentration (AUC) of DOPA in brain.
6035

For the compound shown here, CC(C)(C)C(=O)Oc1ccc(C[C@H](N)C(=O)O)cc1OC(=O)C(C)(C)C [Boc-elimination of Compound D, reference compound] , give the reported Area under the curve of concentration (AUC) of DOPA in brain.
3169

# input for lookup
For the compound shown here, C/C(=C(\CCOC(=O)C(N)Cc1ccc(OC(=O)C(C)(C)C)c(OC(=O)C(C)(C)C)c1)SSCC1CCCO1)N(C=O)Cc1cnc(C)nc1N (stereo not shown) [29 (b)] , give the reported Area under the curve of concentration (AUC) of DOPA in brain.
6659
